Quick list: IC50 per entry.
Target: EML4-ALK (L1196M)-BaF3 (Homo sapiens, UniProt Q9UM73, L1196M)
Construct: expressed in transfected cells; host or cells: Ba/F3 cells; the other entry of the earlier key: EML4 (Q9HC35, Echinoderm microtubule-associated protein-like 4)
Assay: Growth inhibition of EML4-ALK (L1196M) transformed BaF3 cells (MTS)
Format: cell-based
Details: 48 hours, Table 11, read-out: EML4-ALK (L1196M) (IC50 nM)
MEASUREMENT_KIND: IC50 (nM)

In [3]: df
Out[3]:
                                   compound  measurement_kind  comparison_operator  recorded_result
0  COC(=O)c1ccccc1Nc1nc(Nc2ccc(S(N)(=O)=O)cc2)nc2cc[nH]c12 [IG-4]              IC50                    =             4940
1  COC(=O)c1sccc1Nc1nc(Nc2ccc(N3CCC(N4CCN(C)CC4)CC3)cc2OC)nc2cc[nH]c12 [IK-2]              IC50                    =              451
2  COc1cc(N2CCN(C)CC2)ccc1Nc1nc(NCc2ccccc2SC)c2[nH]ccc2n1 [IL-1]              IC50                    =             1620
3  COc1cc(N2CCN(C)CC2)ccc1Nc1nc(NCc2ccccc2SC(C)C)c2[nH]ccc2n1 [IM-1]              IC50                    =              587
4  COC(=O)c1ccccc1Sc1nc(Nc2ccc(N3CCN(C)CC3)cc2OC)nc2cc[nH]c12 [IU-1]              IC50                    >            10000
5  COC(=O)c1ccccc1Nc1nc(Nc2ccc(C(=O)N3CCC(N4CCN(C)CC4)CC3)cc2OC)nc2cc[nH]c12 [IG-12]              IC50                    =             4130
6  CNC(=O)c1ccccc1Nc1nc(Nc2ccc(S(N)(=O)=O)cc2)nc2cc[nH]c12 [IJ-3]              IC50                    >            10000
